Experiment: qHTS of pediatric cancer cell lines to identify multiple opportunities for drug repurposing: Primary screen for SJ-GBM2 cells (AID 1347091)
Conditions: SJ-GBM2 viability, CellTiter-Glo luminescence, 48 h; series mostly up to 46 µM
Results filed as inconclusive are left out. Activity calls are given as the source filed them. Calls come from the whole dose curve; as a rule, active = well fitted cell-killing curve with a large enough effect; inconclusive = small, poorly fitted or top-dose-only effect; inactive = no such curve, though single readings can be large or run the other way.
Use one of these outcomes when replying: active, inactive

Give the logged outcome of this assay for the following molecule: O=S(=O)(O)C(F)(F)C(F)(F)C(F)(F)C(F)(F)F inactive

Give the logged outcome of this assay for the following molecule: c1ccc2c(CN3CCNCC3)cccc2c1 inactive

Give the logged outcome of this assay for the following molecule: CN[C@@H]1Cc2cccc3[nH]c(=O)n(c23)C1 inactive

Give the logged outcome of this assay for the following molecule: O=C1CCC[C@@H]2[C@H]3CCCN4CCC[C@@H](CN12)[C@@H]34 inactive

Give the logged outcome of this assay for the following molecule: CCCCOC(=O)c1ccccc1C(=O)OCc1ccccc1 inactive

Give the logged outcome of this assay for the following molecule: CC(C)[C@]12O[C@@H]1[C@@H]1O[C@]13[C@]1(O[C@H]1C[C@@H]1C4=C(CC[C@@]13C)C(=O)OC4)[C@H]2O active

Give the logged outcome of this assay for the following molecule: COC(=O)c1cncn1C(C)c1ccccc1 (configuration not stated) inactive

Give the logged outcome of this assay for the following molecule: NC1=NC(=O)N2CC12 (configuration not stated) inactive

Give the logged outcome of this assay for the following molecule: C=C1C[C@H]2[C@H]3CCC(=O)[C@@]3(C)CC[C@@H]2[C@@]2(C)C=CC(=O)C=C12 inactive

Give the logged outcome of this assay for the following molecule: COC(=O)[C@@H](N)CCCN=C(N)N[N+](=O)[O-] inactive

Give the logged outcome of this assay for the following molecule: O=c1[nH]c2ccccc2n1C1CCN(Cc2ccc(-c3[nH]c4cc5ncnc5cc4nc3-c3ccccc3)cc2)CC1 active

Give the logged outcome of this assay for the following molecule: COc1ccc(CC2NCCc3cc(OC)c(OC)cc32)cc1OC (configuration not stated) inactive

====

Experiment: Primary qHTS for inhibitors of nuclear receptor binding SET domain protein 2 (NSD2) in an isogenic RCH-ACV NSD2 p.E1099K mutant (9B) (AID 1645876); note: nearly all actives have a fitted effect of over 70% in size
Conditions: RCH-ACV (leukaemia line) NSD2 E1099K (9B) viability, CellTiter-Glo, 72 h; series mostly up to 44.9 µM
Inconclusive results are not listed. The source made the active and inactive calls. Calls come from the whole dose curve; as a rule, active = well fitted inhibition curve with a large enough effect; inconclusive = small, poorly fitted or top-dose-only effect; inactive = flat fitted curve, though single readings scatter.
Use one of these outcomes when replying: YES (active), NO (inactive)

Give the logged outcome of this assay for the following compound: O=C(O)CCCOc1ccc(Cl)cc1Cl NO

Give the logged outcome of this assay for the following compound: O=[N+]([O-])/N=C1\NCCN1Cc1ccc(Cl)nc1 NO

Give the logged outcome of this assay for the following compound: CCOCCOC(C)=O NO

Give the logged outcome of this assay for the following compound: O=c1[nH]c2ccccc2n1C1CCN(Cc2ccc(-c3[nH]c4cc5ncnc5cc4nc3-c3ccccc3)cc2)CC1 YES

====

Assay: Quantitative High-Throughput drug screen in 47 multiple myeloma cell lines against the NCATS MIPE library collection: KMS28BM_JCRB cell viability assay (AID 1919874); note: nearly all actives have a fitted effect of over 35% in size
Conditions: CellTiter-Glo ATP, 48 h; series mostly up to 45.8 µM
Records with an inconclusive call do not appear. Active and inactive are the calls of the source. The call rests on the fitted dose curve; in most records, active means well fitted cell-killing curve with a large enough effect; inconclusive means small, poorly fitted or top-dose-only effect, or effect the other way; inactive means no such curve, though single readings can be large or run the other way.
Use one of these outcomes when replying: 1 (active), 0 (inactive)

Give the logged outcome of this assay for the following compound: CC=C(C)C(=O)O[C@H]1C(C)=C2[C@@H]3OC(=O)[C@@](C)(O)[C@@]3(O)[C@@H](OC(=O)CCC)C[C@](C)(OC(C)=O)[C@@H]2[C@@H]1OC(=O)CCCCCCC 1

Give the logged outcome of this assay for the following compound: CCOP(=O)(OCC)C(C)NC(=O)N(CCCl)N=O (stereo not drawn) 0

Give the logged outcome of this assay for the following compound: CCC(=O)OC1CCC2C3CCC4=CC(=O)CC[C@@]4(C)C3CC[C@]12C (stereo partly drawn) 0
